# Measured on: UniProt:Q13535
# Sequence (Q13535 other isoform, or with tags, fused parts or gaps): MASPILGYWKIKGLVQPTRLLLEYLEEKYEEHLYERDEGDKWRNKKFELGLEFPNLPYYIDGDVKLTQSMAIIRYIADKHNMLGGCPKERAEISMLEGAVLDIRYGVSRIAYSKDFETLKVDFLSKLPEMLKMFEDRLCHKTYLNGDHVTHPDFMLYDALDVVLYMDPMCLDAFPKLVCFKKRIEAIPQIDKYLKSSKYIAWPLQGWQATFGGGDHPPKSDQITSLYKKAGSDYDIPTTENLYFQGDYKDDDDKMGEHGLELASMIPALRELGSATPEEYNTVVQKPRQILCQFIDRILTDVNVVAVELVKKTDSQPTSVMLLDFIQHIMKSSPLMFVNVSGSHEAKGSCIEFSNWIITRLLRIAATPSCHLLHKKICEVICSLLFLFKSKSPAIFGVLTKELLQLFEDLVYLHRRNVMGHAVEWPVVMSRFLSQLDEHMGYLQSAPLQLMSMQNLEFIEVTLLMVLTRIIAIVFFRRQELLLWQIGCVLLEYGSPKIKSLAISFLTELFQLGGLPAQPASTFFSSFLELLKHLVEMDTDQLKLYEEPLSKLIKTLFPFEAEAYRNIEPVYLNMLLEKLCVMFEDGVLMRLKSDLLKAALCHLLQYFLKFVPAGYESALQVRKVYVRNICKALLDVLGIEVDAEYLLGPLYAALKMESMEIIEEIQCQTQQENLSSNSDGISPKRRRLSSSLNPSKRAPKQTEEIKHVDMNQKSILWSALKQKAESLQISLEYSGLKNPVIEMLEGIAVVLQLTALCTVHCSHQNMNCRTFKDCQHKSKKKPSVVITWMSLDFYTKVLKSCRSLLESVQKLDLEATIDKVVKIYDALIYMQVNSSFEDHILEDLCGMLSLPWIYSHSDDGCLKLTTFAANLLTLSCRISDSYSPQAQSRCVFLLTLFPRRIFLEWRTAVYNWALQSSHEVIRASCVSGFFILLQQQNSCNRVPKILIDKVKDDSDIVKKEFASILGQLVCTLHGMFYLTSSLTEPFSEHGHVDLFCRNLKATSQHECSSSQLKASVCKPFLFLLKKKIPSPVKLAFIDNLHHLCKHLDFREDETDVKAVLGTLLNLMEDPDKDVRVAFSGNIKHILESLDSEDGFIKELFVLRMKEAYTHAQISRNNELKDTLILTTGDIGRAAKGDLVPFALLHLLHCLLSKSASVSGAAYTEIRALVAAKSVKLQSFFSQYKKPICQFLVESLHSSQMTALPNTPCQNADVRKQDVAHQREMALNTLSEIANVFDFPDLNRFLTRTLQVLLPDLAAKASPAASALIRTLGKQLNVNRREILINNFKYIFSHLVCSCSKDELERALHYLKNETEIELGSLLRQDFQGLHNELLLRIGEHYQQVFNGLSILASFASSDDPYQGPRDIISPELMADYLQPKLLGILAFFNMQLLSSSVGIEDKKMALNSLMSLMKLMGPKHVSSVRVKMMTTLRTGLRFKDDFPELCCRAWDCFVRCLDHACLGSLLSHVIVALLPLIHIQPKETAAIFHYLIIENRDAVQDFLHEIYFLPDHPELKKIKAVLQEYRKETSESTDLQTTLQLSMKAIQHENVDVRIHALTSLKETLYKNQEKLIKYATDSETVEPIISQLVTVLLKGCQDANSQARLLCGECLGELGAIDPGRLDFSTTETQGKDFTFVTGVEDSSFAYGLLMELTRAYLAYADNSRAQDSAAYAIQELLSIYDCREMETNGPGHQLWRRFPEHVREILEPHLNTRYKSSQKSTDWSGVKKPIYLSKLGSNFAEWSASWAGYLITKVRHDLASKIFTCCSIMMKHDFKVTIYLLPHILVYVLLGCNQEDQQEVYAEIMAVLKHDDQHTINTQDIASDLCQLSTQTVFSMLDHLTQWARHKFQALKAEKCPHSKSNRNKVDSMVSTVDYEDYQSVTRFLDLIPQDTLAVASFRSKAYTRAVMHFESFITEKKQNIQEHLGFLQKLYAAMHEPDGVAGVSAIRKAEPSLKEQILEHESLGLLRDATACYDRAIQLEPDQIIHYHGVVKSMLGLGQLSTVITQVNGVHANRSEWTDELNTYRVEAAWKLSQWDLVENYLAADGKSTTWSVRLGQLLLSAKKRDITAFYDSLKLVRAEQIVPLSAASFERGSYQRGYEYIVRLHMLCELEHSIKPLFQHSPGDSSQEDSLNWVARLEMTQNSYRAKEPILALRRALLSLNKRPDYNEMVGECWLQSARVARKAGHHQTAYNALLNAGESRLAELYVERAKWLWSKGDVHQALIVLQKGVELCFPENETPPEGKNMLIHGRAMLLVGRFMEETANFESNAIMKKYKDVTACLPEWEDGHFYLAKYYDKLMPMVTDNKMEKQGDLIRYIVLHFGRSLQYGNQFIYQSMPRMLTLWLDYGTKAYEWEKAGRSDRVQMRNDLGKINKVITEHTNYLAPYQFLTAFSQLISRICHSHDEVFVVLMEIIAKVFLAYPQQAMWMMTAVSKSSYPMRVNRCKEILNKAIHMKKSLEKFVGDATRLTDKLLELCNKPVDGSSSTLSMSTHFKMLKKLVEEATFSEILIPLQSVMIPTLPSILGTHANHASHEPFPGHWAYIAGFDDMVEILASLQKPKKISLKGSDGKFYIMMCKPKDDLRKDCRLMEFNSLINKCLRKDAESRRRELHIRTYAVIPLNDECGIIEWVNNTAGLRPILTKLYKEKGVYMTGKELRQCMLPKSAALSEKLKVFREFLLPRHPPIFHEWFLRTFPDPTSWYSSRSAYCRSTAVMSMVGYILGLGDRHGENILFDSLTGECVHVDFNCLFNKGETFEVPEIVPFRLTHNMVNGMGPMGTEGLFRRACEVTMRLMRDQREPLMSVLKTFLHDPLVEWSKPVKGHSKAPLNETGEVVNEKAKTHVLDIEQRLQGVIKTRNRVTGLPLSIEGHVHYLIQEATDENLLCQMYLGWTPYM
# Sequence (Q8WXE1 other isoform, or with tags, fused parts or gaps partner): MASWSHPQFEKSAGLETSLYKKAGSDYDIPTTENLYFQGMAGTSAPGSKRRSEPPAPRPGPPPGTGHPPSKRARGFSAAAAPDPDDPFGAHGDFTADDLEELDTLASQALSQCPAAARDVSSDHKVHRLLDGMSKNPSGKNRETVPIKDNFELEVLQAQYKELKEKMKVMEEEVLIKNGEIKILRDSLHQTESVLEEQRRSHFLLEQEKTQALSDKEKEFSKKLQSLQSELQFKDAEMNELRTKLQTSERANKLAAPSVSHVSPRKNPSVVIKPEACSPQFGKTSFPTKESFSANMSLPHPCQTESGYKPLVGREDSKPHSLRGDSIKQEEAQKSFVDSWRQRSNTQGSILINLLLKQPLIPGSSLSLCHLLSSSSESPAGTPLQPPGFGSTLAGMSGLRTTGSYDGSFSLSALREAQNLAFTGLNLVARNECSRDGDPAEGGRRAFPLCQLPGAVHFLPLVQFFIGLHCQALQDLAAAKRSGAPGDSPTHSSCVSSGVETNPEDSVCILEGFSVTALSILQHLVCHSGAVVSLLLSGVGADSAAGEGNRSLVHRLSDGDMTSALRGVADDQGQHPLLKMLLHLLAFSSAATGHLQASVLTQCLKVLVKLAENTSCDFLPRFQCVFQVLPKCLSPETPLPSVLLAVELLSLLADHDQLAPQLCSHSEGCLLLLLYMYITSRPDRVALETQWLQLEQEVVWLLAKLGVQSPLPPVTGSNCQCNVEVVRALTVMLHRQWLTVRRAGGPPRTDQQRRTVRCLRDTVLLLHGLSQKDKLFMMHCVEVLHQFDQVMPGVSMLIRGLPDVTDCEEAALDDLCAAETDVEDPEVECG
# Assay name: Binding assay ATR (TR-FRET tracer displacement)
# Run conditions: tracer A, TR-FRET; read-out: ATR binding (tracer A) IC50
Items are presented alongside their recorded log10 of IC50.
# log10 transformed; quantity=IC50; unit=nM

Use these answered entries as a reference point.
Entry `C[C@@H]1COCCN1c1cc(-c2cccc(F)c2F)c2ccnc(-c3ccn[nH]3)c2n1` ; log10 of IC50 = 0.80

Entry `C[C@@H]1COCCN1c1cc(-c2ccccc2N)c2ccnc(-c3ccn[nH]3)c2n1` ; log10 of IC50 = 0.75

Entry `C[C@@H]1COCCN1c1cc(-c2ccns2)c2ccnc(-c3ccn[nH]3)c2n1` ; log10 of IC50 = 1.24

Entry `C[C@@H]1COCCN1c1cc(P(C)(C)=O)c2ccnc(-c3ccn[nH]3)c2n1` ; log10 of IC50 = 1.64

Entry `CCn1cnc(-c2cc(N3CCOC[C@H]3C)nc3c(-c4ccn[nH]4)nccc23)c1` ; log10 of IC50 = 1.74

***
Entry `CC1CCN(c2cc(N3CCOC[C@H]3C)nc3c(-c4ccn[nH]4)nccc23)CC1` ; log10 of IC50 = 0.96

Entry `Fc1cnccc1-c1cc(N2CCOCC2)nc2c(-c3ccn[nH]3)nccc12` ; log10 of IC50 = 2.01

Entry `c1cc(-c2nccc3c(N4C5CCC4COC5)cc(N4CCOCC4)nc23)[nH]n1` ; log10 of IC50 = 2.33

Entry `C[C@@H]1COCCN1c1cc(N)c2ccnc(-c3ccn[nH]3)c2n1` ; log10 of IC50 = 3.00

Entry `CC(C)Oc1cc(N2CCOCC2)nc2c(-c3cc[nH]n3)nccc12` ; log10 of IC50 = 2.10
